B1: SLC2A12 (parent)
chain: CLLGLGSLVLILSLSYTVLIVGRI

# Variants of: B1
# ASSAY_NAME: protein stability index of a GFP-peptide fusion (GPS, HEK-293T) (PSI 1-6); higher = more stable;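 note: lentivirally expressed fusions sorted by FACS into six bins by GFP to DsRed ratio, PSI derived from sequencing read proportions per bin multiplied by bin number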
# REPORTED_CONDITIONS: c terminus: a fixed tail appended
Label rule, in plain words: protein stability index of 3 and up is Fulfilled, under 3 is Not fulfilled.

Q. Hi, just wondering whether "L10N" shows protein stability index of 3 or higher.
A. Not fulfilled

Q. Hi, just wondering whether "L19P" shows protein stability index of 3 or higher.
A. Fulfilled

Q. Hi, just wondering whether "R23T" shows protein stability index of 3 or higher.
A. Not fulfilled

Q. Hi, just wondering whether "V9N" shows protein stability index of 3 or higher.
A. Not fulfilled

Q. Hi, just wondering whether "I20L" shows protein stability index of 3 or higher.
A. Fulfilled

Q. Hi, just wondering whether "L3E" shows protein stability index of 3 or higher.
A. Not fulfilled

Q. Hi, just wondering whether "L8H" shows protein stability index of 3 or higher.
A. Not fulfilled

Q. Hi, just wondering whether "G22H" shows protein stability index of 3 or higher.
A. Not fulfilled

Q. Hi, just wondering whether "I20P" shows protein stability index of 3 or higher.
A. Not fulfilled

Q. Hi, just wondering whether "L2Q" shows protein stability index of 3 or higher.
A. Not fulfilled

Q. Hi, just wondering whether "C1N" shows protein stability index of 3 or higher.
A. Not fulfilled

Q. Hi, just wondering whether "V21F" shows protein stability index of 3 or higher.
A. Fulfilled

Q. Hi, just wondering whether "G22K" shows protein stability index of 3 or higher.
A. Not fulfilled

Q. Hi, just wondering whether "S15H" shows protein stability index of 3 or higher.
A. Fulfilled

Q. Hi, just wondering whether "V21E" shows protein stability index of 3 or higher.
A. Not fulfilled

Q. Hi, just wondering whether "V18F" shows protein stability index of 3 or higher.
A. Not fulfilled

Q. Hi, just wondering whether "C1M" shows protein stability index of 3 or higher.
A. Not fulfilled

Q. Hi, just wondering whether "R23F" shows protein stability index of 3 or higher.
A. Not fulfilled

Q. Hi, just wondering whether "G6I" shows protein stability index of 3 or higher.
A. Not fulfilled

Q. Hi, just wondering whether "R23A" shows protein stability index of 3 or higher.
A. Not fulfilled
